# test.system: Cathepsin D (Homo sapiens, UniProt P07339)
# Sequence (P07339 65-412, species assumed): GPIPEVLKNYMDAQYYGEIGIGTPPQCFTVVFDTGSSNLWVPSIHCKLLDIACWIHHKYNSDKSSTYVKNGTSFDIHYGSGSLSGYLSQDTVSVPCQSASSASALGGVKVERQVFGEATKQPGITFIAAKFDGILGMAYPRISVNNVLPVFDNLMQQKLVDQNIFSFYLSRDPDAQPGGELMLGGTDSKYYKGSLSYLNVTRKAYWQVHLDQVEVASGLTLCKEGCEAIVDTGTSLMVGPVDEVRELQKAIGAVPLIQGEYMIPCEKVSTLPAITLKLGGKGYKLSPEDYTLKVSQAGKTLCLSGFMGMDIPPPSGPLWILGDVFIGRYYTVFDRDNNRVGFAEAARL
pKi: −log10 of the molar value.
endpoint.name: pKi

> print(dat)
                                    compound           val
 1  CC(C)CC(NC(=O)c1cc(C(=O)NC(C)c2ccccc2)cc(N(C)S(C)(=O)=O)c1)C(O)CC(C)C(=O)NCc1ccccc1 (stereo not shown)        < 5.30
 2  Cc1cc(C(=O)NC(CC(C)C)C(O)CC(C)C(=O)NC(C(=O)NCC(C)C)C(C)C)cc(C(=O)N(C)Cc2nc(C)cs2)c1 (stereo not shown)        > 6.39
 3  CC(C)CC(NC(=O)c1cc(C(=O)NC(C)c2ccccc2)cc(N(C)S(C)(=O)=O)c1)C(O)CC(C)C(=O)NC(C(=O)NCc1ccncc1)C(C)C (stereo not shown)        > 6.39
 4  COC(=O)N(C)c1cc(C(=O)NC(C)c2ccccc2)cc(C(=O)NC(CC(C)C)C(O)CC(C)C(=O)NC(C(=O)NCC(C)C)C(C)C)c1 (stereo not shown)        > 6.39
 5  CCCN(CCC)C(=O)c1cccc(C(=O)NC(Cc2ccc(OC)cc2)C(O)CC(C)C(=O)NC(C(=O)NCC(C)C)C(C)C)c1 (stereo not shown)        > 6.39
 6  CC(C)CNC(=O)C(NC(=O)C(C)CC(O)C(CC(C)C)NC(=O)c1cc(F)cc(C(=O)NC(C)c2ccccc2)c1)C(C)C (stereo not shown)        > 6.39
 7  CCN(Cc1ccncc1)C(=O)c1cc(C)cc(C(=O)NC(CC(C)C)C(O)CC(C)C(=O)NC(C(=O)NCC(C)C)C(C)C)c1 (stereo not shown)        > 6.39
 8  Cc1csc(CN(C)C(=O)c2cccc(C(=O)NC(CC(C)C)C(O)CC(C)C(=O)NC(C(=O)NCC(C)C)C(C)C)c2)n1 (stereo not shown)        > 6.39
 9  Cc1nc(C(C)NC(=O)c2cc(C(=O)NC(CC(C)C)C(O)CC(C)C(=O)NC(C(=O)NC(C)C)C(C)C)cc(N(C)S(C)(=O)=O)c2)c(C)o1 (stereo not shown)  5.70 to 6.39
10  CCCN(CCC)C(=O)c1cccc(C(=O)N[C@@H](CC(C)C)[C@@H](O)C[C@@H](C)C(=O)NC(C(=O)NCC(C)C)C(C)C)c1 (stereo in doubt)        > 6.39
11  CC(C)CNC(=O)C(NC(=O)C(C)CC(O)C(CC(C)C)NC(=O)c1cccc(C(=O)N(C)Cc2ccccn2)c1)C(C)C (stereo not shown)        > 6.39
12  CC(C)CNC(=O)C(NC(=O)C(C)CC(O)C(CC(C)C)NC(=O)c1cc(C(=O)N(C)C(C)c2ccccc2)cc(N(C)S(C)(=O)=O)c1)C(C)C (stereo not shown)        > 6.39
13  CCC(NC(=O)C(C)CC(O)C(CC(C)C)NC(=O)c1cc(C(=O)NC(C)c2ccccc2)cc(N(C)S(C)(=O)=O)c1)C(=O)NCC(C)C (stereo not shown)        > 6.39
14  Cc1nc(CNC(=O)c2cc(C(=O)NC(CC(C)C)C(O)CC(C)C(=O)NC(C(=O)NC(C)C)C(C)C)cc(N(C)S(C)(=O)=O)c2)c(C)o1 (stereo not shown)        > 6.39
15  CCCN(CCC)C(=O)c1cccc(C(=O)NC(Cc2ccc(OC)c(Cl)c2)C(O)CC(C)C(=O)NC(C(=O)NCC(C)C)C(C)C)c1 (stereo not shown)        > 6.39
16  CCCNC(=O)c1cc(C(=O)NC(CC(C)C)C(O)CC(C)C(=O)NC(C(=O)NC(C)C)C(C)C)cc(N(C)S(C)(=O)=O)c1 (stereo not shown)  5.70 to 6.39
17  CC(C)CNC(=O)C(NC(=O)C(C)CC(O)C(CC(C)C)NC(=O)c1cccc(C(=O)N(C)Cc2cnccn2)c1)C(C)C (stereo not shown)        > 6.39
18  CC(C)CNC(=O)C(NC(=O)C(C)CC(O)C(CC(C)C)NC(=O)c1cncc(C(=O)N(C)Cc2ccccn2)c1)C(C)C (stereo not shown)        > 6.39
19  CC(C)CC(NC(=O)c1cc(C(=O)NC2c3ccccc3CC2O)cc(N(C)S(C)(=O)=O)c1)C(O)CC(C)C(=O)NC(C(=O)NC(C)C)C(C)C (stereo not shown)  5.70 to 6.39
20  CCC(NC(=O)C(C)CC(O)C(CC(C)C)NC(=O)c1cccc(C(=O)N(C)Cc2nc(C)cs2)c1)C(=O)NC(C)C (stereo not shown)  5.70 to 6.39
21  CC(C)CNC(=O)C(NC(=O)C(C)CC(O)C(CC(C)C)NC(=O)c1cc(C(=O)NC(C)c2ccccc2)cc(S(=O)(=O)N(C)C)c1)C(C)C (stereo not shown)        > 6.39
22  CCCN(CCC)C(=O)c1cccc(C(=O)NC(Cc2cc(F)cc(F)c2)C(O)CC(C)C(=O)NCC(C)C)c1 (stereo not shown)        > 6.39
